Tested on: HL-60
Experiment: MTT cytotoxicity assay, 72 h
Type: cell-based, human
Conditions: IC50 in MRC-5 / IC50 in HL-60
Excerpt: In our study, the human cancer cell lines used were CFAPC- 1 (pancreatic adenocarcinoma); NCI-H460 (large cell lung); HL-60 (acute promyelocytic leukaemia); CACO2 (colorectal adenocarcinoma); HCT-116 (colorectal carcinoma); K562 (chronic myeloid leukaemia); MCF-7 (breast adenocarcinoma); and MRC-5 control cells (normal fibroblasts). […]
Reported Metric: Selectivity Index (SI) MRC-5/HL-60
Field format: numeric only.

Prompt: # return recorded Selectivity Index (SI) MRC-5/HL-60 for entry FC(F)(F)c1ccc(N2CCN(c3nc(Cl)nc4c3ncn4C3CCCC3)CC2)nc1
Response: 3.3

Prompt: # return recorded Selectivity Index (SI) MRC-5/HL-60 for entry Clc1nc(N2CCN(c3cnccn3)CC2)c2ncn(C3CCCC3)c2n1
Response: 3.7
